Reference source for all entries: ChEMBL document CHEMBL5385938

Listing of entries alongside the reported IC50.
- Test system: SK-BR-3
- Assay Protocol: Cytotoxicity against human SK-BR-3 cells harboring wildtype PI3Kalpha assessed as reduction in cell viability incubated for 72 hrs by CellTiter-Glo 2.0 luminescent cell viability assay
- Assay type: functional, cell-based
- Test Parameters: SK-BR-3, 72 h

Use the examples below as a reference point.
Cc1cc([C@@H](C)Nc2ccccc2C(=O)O)c2nc(N3CCS(=O)(=O)CC3)c(C#N)c(=O)n2c1; > 10 µM
Cc1cc([C@@H](C)Nc2ccccc2C(=O)O)c2nc(N3CCC(C)(C)CC3)c(C#N)c(=O)n2c1; > 10 µM
Cc1cc(C(C)Nc2ccccc2C(=O)O)c2nc(N3CCC(C)(C)CC3)n(C)c(=O)c2c1 (centres undefined); > 10 µM

Read the next record carefully.
*Q* Entry under review: `Cc1cc([C@@H](C)Nc2ccccc2C(=O)O)c2oc(N3CCC(C)(C)CC3)c(C)c(=O)c2c1` . Reported IC50?
*A* 9.08 µM

* * *

- Test system: SK-BR-3
- Assay Protocol: Cytotoxicity against human SK-BR-3 cells harboring wildtype PI3Kalpha assessed as reduction in cell viability incubated for 72 hrs by CellTiter-Glo 2.0 luminescent cell viability assay
- Type: functional, cell-based
- Test Parameters: SK-BR-3, 72 h
Quantity Name: IC50

Use the examples below as a reference point.
Cc1cc([C@@H](C)Nc2ccccc2C(=O)O)c2nc(N3CC4CC(C3)C4(F)F)c(C#N)c(=O)n2c1; > 10 µM
Cc1cc([C@@H](C)Nc2ccccc2C(=O)O)c2nc(N3CCCCC3)cc(=O)n2c1; > 10 µM
Cc1cc(C(C)Nc2ccccc2C(=O)O)c2nc(N3CCCCC3)ncc2c1 (stereo not given); > 10 µM
Cc1cc([C@@H](C)Nc2ccccc2C(=O)O)c2nc(N3CC(F)(F)C3)c(C#N)c(=O)n2c1; > 10 µM
Cc1cc([C@@H](C)Nc2ccccc2C(=O)O)c2nc(N3CCCC3)c(C#N)c(=O)n2c1; > 10 µM
Cc1cc([C@@H](C)Nc2ccccc2C(=O)O)c2nc(C3CCC(F)(F)CC3)c(C#N)c(=O)n2c1; > 10 µM
Cc1cc([C@@H](C)Nc2ccccc2C(=O)O)c2nc(N3CCCCC3)c(C#N)c(=O)n2c1; 9.94 µM
Cc1cc([C@@H](C)Nc2ccccc2C(=O)O)c2nc(N3CCC(F)(F)CC3)c(C#N)c(=O)n2c1; 8.97 µM

*Q* Any idea what its IC50 is? The compound is `Cc1cc([C@@H](C)Nc2ccccc2C(=O)O)c2nc(N3CC4(C3)CC(F)(F)C4)c(C#N)c(=O)n2c1`
*A* > 10 µM

*Q* Entry `Cc1cc([C@@H](C)Nc2ccccc2C(=O)O)c2nc(N3CCCCC3)c(C)c(=O)n2c1` : reported IC50 = ?
*A* > 10 µM

* * *

Listed below: IC50 values for each entry.
- Target Entity: Phosphatidylinositol 4,5-bisphosphate 3-kinase catalytic subunit alpha isoform (Homo sapiens, UniProt P42336, H1047R)
- Sequence (P42336 whole entry H1047R, canonical isoform): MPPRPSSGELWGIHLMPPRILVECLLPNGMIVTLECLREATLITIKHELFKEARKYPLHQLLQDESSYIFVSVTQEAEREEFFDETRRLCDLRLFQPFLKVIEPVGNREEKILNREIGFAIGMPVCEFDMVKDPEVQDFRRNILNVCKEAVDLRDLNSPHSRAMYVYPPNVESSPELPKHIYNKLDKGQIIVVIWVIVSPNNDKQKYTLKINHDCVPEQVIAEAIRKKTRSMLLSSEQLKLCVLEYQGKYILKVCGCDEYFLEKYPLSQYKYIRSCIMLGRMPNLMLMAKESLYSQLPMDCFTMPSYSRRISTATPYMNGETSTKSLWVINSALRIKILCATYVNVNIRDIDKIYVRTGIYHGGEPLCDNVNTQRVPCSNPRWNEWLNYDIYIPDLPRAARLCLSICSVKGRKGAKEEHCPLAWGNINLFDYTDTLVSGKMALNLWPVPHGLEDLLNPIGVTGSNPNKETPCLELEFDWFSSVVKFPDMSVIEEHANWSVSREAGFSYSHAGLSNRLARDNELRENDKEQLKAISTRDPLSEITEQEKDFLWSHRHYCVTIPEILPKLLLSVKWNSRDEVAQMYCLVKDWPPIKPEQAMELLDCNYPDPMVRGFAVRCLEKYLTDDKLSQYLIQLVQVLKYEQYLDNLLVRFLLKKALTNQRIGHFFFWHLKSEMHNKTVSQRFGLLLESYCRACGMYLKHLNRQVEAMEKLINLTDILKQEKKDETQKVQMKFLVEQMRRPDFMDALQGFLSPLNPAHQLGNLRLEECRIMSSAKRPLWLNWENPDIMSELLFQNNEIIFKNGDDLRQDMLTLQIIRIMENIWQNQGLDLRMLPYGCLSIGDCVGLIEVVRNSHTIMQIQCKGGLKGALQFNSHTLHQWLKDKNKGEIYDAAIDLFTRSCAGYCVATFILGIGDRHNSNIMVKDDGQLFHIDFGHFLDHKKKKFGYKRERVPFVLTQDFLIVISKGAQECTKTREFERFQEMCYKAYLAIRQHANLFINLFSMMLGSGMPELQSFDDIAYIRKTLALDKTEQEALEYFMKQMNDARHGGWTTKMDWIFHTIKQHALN
- Assay Protocol: Inhibition of PI3Kalpha H1047R mutant (unknown origin) using PI(4,5)P2:PS as substrate incubated in presence of ATP by ADP-Glo assay
Only the number, expressed in nM, is required.

*Q* Recorded IC50 for `Cc1cc([C@@H](C)Nc2ccccc2C(=O)O)c2nc(N3CCCCC3)cc(=O)n2c1` , please?
*A* 411

*Q* Given the molecule `Cc1cc([C@@H](C)Nc2ccccc2C(=O)O)c2nc(N3CCC(F)(F)CC3)c(C#N)c(=O)n2c1` , what is its reported IC50?
*A* 73

* * *

- Assay Protocol: Metabolic stability in pooled human hepatocytes assessed as intrinsic clearance
- Type: ADME, Liver, Hepatocyte
- Test Parameters: read-out: CLH
The following molecules are shown together with reported log10(CLint scaled) values.
A value of 2 here means CLint scaled of 100 in mL/min/kg, since values are log10.

Example entries and their recorded answers appear below.
Cc1cc([C@@H](C)Nc2ccccc2C(=O)O)c2nc(N3CCCCC3)c(C)c(=O)n2c1; 2.53
Cc1cc([C@@H](C)Nc2ccccc2C(=O)O)c2nc(N3CCCC3)c(C#N)c(=O)n2c1; 1.89
Cc1cc([C@@H](C)Nc2ccccc2C(=O)O)c2nc(N3CCS(=O)(=O)CC3)c(C#N)c(=O)n2c1; 0.70
Cc1cc([C@@H](C)Nc2ccccc2C(=O)O)c2nc(N3CCCCC3)cc(=O)n2c1; 2.26
Cc1cc([C@@H](C)Nc2ccccc2C(=O)O)c2nc(N3CC(F)(F)C3)c(C#N)c(=O)n2c1; 1.38
Cc1cc([C@@H](C)Nc2ccccc2C(=O)O)c2nc(N3CCCCC3)c(F)c(=O)n2c1; 2.94
Cc1cc([C@@H](C)Nc2ccccc2C(=O)O)c2nc(N3CC4(C3)CC(F)(F)C4)c(C#N)c(=O)n2c1; 2.07
Cc1cc([C@@H](C)Nc2ccccc2C(=O)O)c2nc(N3CC4CC(C3)C4(F)F)c(C#N)c(=O)n2c1; 1.59
Cc1cc([C@@H](C)Nc2ccccc2C(=O)O)c2nc(N3CCC(F)(F)CC3)c(C#N)c(=O)n2c1; 1.46
Cc1cc([C@@H](C)Nc2ccccc2C(=O)O)c2nc(N3CCC(C)(C)CC3)c(C#N)c(=O)n2c1; 1.88

*Q* # log10(CLint scaled) lookup, item `Cc1cc([C@@H](C)Nc2ccccc2C(=O)O)c2nc(C3CCC(F)(F)CC3)c(C#N)c(=O)n2c1`
*A* 1.08

*Q* Look up log10(CLint scaled): `Cc1cc([C@@H](C)Nc2ccccc2C(=O)O)c2nc(N3CCCCC3)c(C#N)c(=O)n2c1`
*A* 1.90
